Test: in vivo
Design: species or system SD rats
Details: male, SD, rat, in vivo, iv, 1 mg/kg, IV 1 mg/kg, 1 hr, mean; read-out: liver concentration of 105
QUANTITY_NAME: concentration at 1 h (ng/g)

[
  {
    "COMPOUND": "CCN1CCN(C(=O)C2C3CCC(O3)C2C(=O)O)CC1 (stereo not shown)",
    "QUANTITY_NAME": "concentration at 1 h",
    "UNIT_NAME": "ng/g",
    "RECORDED_MEASUREMENT": 511
  }
]

* * *

Assay: Pharmacokinetic study of 151 (iv, oral) in SD rats: 151 and 100 in plasma
Format: in vivo
Details: male, Sprague-Dawley, rat, in vivo, iv, 1 mg/kg, plasma, 151 IV 1.0 mg/kg, SD rats, mean; read-out: AUC0-∞ of 151

[
  {
    "MOLECULE": "COC(=O)C1C2CCC(O2)C1C(=O)N1CCN(C)CC1 (stereo not shown) [Compound 151]",
    "AUC(0-inf) (ng·h/mL)": 1180
  }
]

* * *

Assay: Pharmacokinetic study of 151 (iv, oral) in SD rats: 151 and 100 in plasma
Type: in vivo
Details: male, Sprague-Dawley, rat, in vivo, po, 10 mg/kg, 151 PO 10 mg/kg, SD rats, 5.0 h, individual rats

[
  {
    "MOLECULE": "COC(=O)C1C2CCC(O2)C1C(=O)N1CCN(C)CC1 (stereo not shown)",
    "UNIT_NAME": "ng/mL",
    "concentration at 5 h": 125
  }
]

* * *

Assay: Pharmacokinetic study of 151 (iv, oral) in SD rats: 151 and 100 in plasma
Type: in vivo
Settings: male, Sprague-Dawley, rat, in vivo, iv, 1 mg/kg, plasma, 151 IV 1.0 mg/kg, SD rats, individual rats; read-out: T1/2 of 151 (converted)
QUANTITY_NAME: half-life (min)

[
  {
    "COMPOUND": "COC(=O)C1C2CCC(O2)C1C(=O)N1CCN(C)CC1 (stereo not shown)",
    "RECORDED_MEASUREMENT": 54.6
  }
]

* * *

Assay: Pharmacokinetic study of 151 (iv, oral) in SD rats: 151 and 100 in plasma
Format: in vivo
Conditions: male, Sprague-Dawley, rat, in vivo, iv, 1 mg/kg, 151 IV 1.0 mg/kg, SD rats, 0.250 h, mean
QUANTITY_NAME: concentration at 0.25 h (ng/mL)

[
  {
    "MOLECULE": "COC(=O)C1C2CCC(O2)C1C(=O)N1CCN(C)CC1 (stereo not shown)",
    "UNIT_NAME": "ng/mL",
    "RECORDED_MEASUREMENT": 1060
  }
]

* * *

Experiment: Pharmacokinetic study of 151 (iv, oral) in SD rats: 151 and 100 in plasma
Assay type: in vivo
Conditions: male, Sprague-Dawley, rat, in vivo, iv, 1 mg/kg, 151 IV 1.0 mg/kg, SD rats, 0.50 h, mean

[
  {
    "COMPOUND": "COC(=O)C1C2CCC(O2)C1C(=O)N1CCN(C)CC1 (stereo not shown)",
    "concentration at 0.5 h / ng/mL": 683
  }
]

* * *

Assay: in vivo
Set-up: species or system SD rats
Settings: male, SD, rat, in vivo; 105 in liver, IV 1 mg/kg, mean; read-out: Cmax

[
  {
    "COMPOUND": "CCN1CCN(C(=O)C2C3CCC(O3)C2C(=O)O)CC1 (stereo not shown)",
    "Cmax": "1030 ng/mL"
  }
]

* * *

Assay: Pharmacokinetic study of 151 (iv, oral) in SD rats: 151 and 100 in plasma
Assay type: in vivo
Details: male, Sprague-Dawley, rat, in vivo, iv, 1 mg/kg, 151 iv 1.0 mg/kg (n=2); read-out: elimination half-life (converted)
QUANTITY_NAME: half-life (min)

[
  {
    "MOLECULE": "COC(=O)C1C2CCC(O2)C1C(=O)N1CCN(C)CC1 (stereo not shown) [Compound 151]",
    "RECORDED_MEASUREMENT": 53.4
  }
]

* * *

Experiment: in vivo
Conditions: male, SD, rat, iv, 1.4 mg/kg, plasma concentration of 100

[
  {
    "MOLECULE": "CN1CCN(C(=O)C2C3CCC(O3)C2C(=O)O)CC1 (stereo not shown)",
    "UNIT_NAME": "ng/mL",
    "concentration at 1 hr": 273
  }
]

* * *

Experiment: Pharmacokinetic study of 157 (iv, po) in SD rats: 157 and endothal in plasma, liver, brain
Type: in vivo
Conditions: female, Sprague-Dawley, rat, in vivo; 157 1.5 mg/kg PO vs IV, mean; read-out: F (bioavailability, BA)
QUANTITY_NAME: bioavailability (%)

[
  {
    "MOLECULE": "CCCCCCCOC(=O)C1C2CCC(O2)C1C(=O)N1CCN(C)CC1 (stereo not shown) [Compound 157]",
    "RECORDED_MEASUREMENT": 6.78
  }
]

* * *

Assay: Pharmacokinetic study of 151 (iv, oral) in SD rats: 151 and 100 in plasma
Format: in vivo
Conditions: male, Sprague-Dawley, rat, in vivo, po, 10 mg/kg, 151 PO 10 mg/kg, SD rats, 9.0 h, mean
Experimental: The absolute bioavailability was evaluated. To each sample, 160 μL of acetonitrile were added. The mass spectrometer was operated in the positive mode. Quantification was achieved by the external standard method. Calibration Curve for Plasma Samples LB100 concentrations of the LB151 plasma samples were also measured and pharmacokinetic parameters were calculated.

[
  {
    "MOLECULE": "COC(=O)C1C2CCC(O2)C1C(=O)N1CCN(C)CC1 (stereo not shown)",
    "concentration at 9 h (ng/mL)": 52.1
  }
]

* * *

Assay: in vivo
Conditions: male, Sprague-Dawley, rat, iv, 1.4 mg/kg, Liver-plasma concentration ratio of 100

[
  {
    "COMPOUND": "CN1CCN(C(=O)C2C3CCC(O3)C2C(=O)O)CC1 (stereo not shown) [Compound 100]",
    "Kp at 2 hr": 4.95
  }
]

* * *

Experiment: in vivo
Design: species or system SD rats
Conditions: male, Sprague-Dawley, rat, in vivo; 105, IV 1 mg/kg, mean; read-out: Cmax in liver

[
  {
    "MOLECULE": "CCN1CCN(C(=O)C2C3CCC(O3)C2C(=O)O)CC1 (stereo not shown)",
    "Cmax": "1030 ng/g"
  }
]

* * *

Test: in vivo
Conditions: male, Sprague-Dawley, rat, iv, 1.4 mg/kg

[
  {
    "COMPOUND": "CN1CCN(C(=O)C2C(C(=O)OCC(Cl)(Cl)Cl)[C@H]3CC[C@@H]2O3)CC1 (stereo partly shown)",
    "UNIT_NAME": "min",
    "Tmax": 15
  }
]

* * *

Molecular target: UniProtKB P67775
Sequence (P67775 whole entry): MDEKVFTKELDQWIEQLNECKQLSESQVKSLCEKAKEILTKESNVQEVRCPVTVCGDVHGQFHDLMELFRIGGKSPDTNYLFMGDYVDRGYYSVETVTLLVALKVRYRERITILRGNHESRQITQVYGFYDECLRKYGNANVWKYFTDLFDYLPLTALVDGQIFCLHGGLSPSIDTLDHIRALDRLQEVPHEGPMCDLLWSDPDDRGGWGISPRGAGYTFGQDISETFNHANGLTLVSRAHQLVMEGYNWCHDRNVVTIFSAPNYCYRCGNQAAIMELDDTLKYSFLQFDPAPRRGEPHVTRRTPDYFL
QUANTITY_NAME: IC50

[
  {
    "COMPOUND": "O=C(O)C1C2CCC(O2)C1C(=O)O (stereo not shown) [Endothal]",
    "RECORDED_MEASUREMENT": "~90 nM"
  }
]

* * *

Assay: Pharmacokinetic study of 151 (iv, oral) in SD rats: 151 and 100 in plasma
Assay type: in vivo
Conditions: male, Sprague-Dawley, rat, in vivo, iv, 1 mg/kg, 151 IV 1.0 mg/kg, SD rats, 2.0 h, individual rats
QUANTITY_NAME: concentration at 2 h (ng/mL)

[
  {
    "MOLECULE": "COC(=O)C1C2CCC(O2)C1C(=O)N1CCN(C)CC1 (stereo not shown)",
    "QUANTITY_NAME": "concentration at 2 h",
    "RECORDED_MEASUREMENT": 95.8
  }
]

* * *

Experiment: Pharmacokinetic study of 151 (iv, oral) in SD rats: 151 and 100 in plasma
Format: in vivo
Details: male, Sprague-Dawley, rat, in vivo, po, 10 mg/kg, plasma, 151 PO 10 mg/kg, SD rats, individual rats; read-out: AUC0-∞ of 151

[
  {
    "COMPOUND": "COC(=O)C1C2CCC(O2)C1C(=O)N1CCN(C)CC1 (stereo not shown)",
    "UNIT_NAME": "ng·h/mL",
    "AUC(0-inf)": 5500
  }
]

* * *

Experiment: Pharmacokinetic study of 151 (iv, oral) in SD rats: 151 and 100 in plasma
Type: in vivo
Details: male, Sprague-Dawley, rat, in vivo, po, 10 mg/kg, 151 PO 10 mg/kg, SD rats, 3.0 h, mean

[
  {
    "COMPOUND": "COC(=O)C1C2CCC(O2)C1C(=O)N1CCN(C)CC1 (stereo not shown)",
    "concentration at 3 h / ng/mL": 658
  }
]

Attribution: patent US11236102B2
